target entity: T1, EsCas13d, nuclease-dead (Eubacterium siraeum, UniProt B0MS50, R295A;H300A;R849A;H854A)
T1 sequence: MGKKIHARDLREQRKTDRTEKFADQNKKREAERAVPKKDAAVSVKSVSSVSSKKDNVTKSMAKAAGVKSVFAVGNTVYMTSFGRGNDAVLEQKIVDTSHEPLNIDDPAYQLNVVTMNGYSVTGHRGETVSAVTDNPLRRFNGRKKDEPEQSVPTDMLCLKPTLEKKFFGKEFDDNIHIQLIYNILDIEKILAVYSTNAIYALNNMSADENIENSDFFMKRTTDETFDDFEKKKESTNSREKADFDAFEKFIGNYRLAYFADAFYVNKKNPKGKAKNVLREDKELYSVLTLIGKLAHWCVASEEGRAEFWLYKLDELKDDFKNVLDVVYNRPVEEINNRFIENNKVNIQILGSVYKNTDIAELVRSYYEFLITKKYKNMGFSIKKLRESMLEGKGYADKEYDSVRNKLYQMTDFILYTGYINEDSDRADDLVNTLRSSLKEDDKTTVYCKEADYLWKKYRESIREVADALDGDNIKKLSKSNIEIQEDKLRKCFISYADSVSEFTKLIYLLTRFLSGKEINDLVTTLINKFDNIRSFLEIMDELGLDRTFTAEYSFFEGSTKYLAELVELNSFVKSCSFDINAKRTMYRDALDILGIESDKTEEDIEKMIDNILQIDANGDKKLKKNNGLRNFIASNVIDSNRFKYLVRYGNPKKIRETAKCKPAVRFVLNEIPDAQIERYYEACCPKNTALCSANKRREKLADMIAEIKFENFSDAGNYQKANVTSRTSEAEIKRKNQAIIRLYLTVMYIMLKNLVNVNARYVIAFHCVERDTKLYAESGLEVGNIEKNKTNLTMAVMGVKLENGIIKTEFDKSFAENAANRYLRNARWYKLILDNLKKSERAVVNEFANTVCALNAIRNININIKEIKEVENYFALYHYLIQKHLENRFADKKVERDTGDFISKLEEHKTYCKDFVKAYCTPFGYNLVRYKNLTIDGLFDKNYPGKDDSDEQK
measurement description: crRNA (strand 1, pre-loaded); Mg2+; 40 mM Tris-HCl pH 7.5, 150 mM NaCl, 6 mM MgCl2, 1 mM DTT, 0.1% Tween-20, 0.2 mg/ml BSA; 25 C; 10 min per concentration, then washed
stated conditions: tags: His6-TwinStrep-SUMO cleaved; N-terminal SNAP kept (SNAP-Surface 488); label: 3' end held by stalled T7 RNA polymerase

binder	Kd
target 1 MT 5'PFS AGC 3'PFS AGG (mixed) RNA 1: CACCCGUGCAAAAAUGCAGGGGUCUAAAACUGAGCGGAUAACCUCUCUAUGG RNA 2: GGGAAUGGAUCCACAUCUACGAAUUCAGCCCAUAGAGAGGUUAUCCGCUCAAGGAGAUCGGAAGAGCACACGU	~60 nM
target 1 U3G,U11A (mixed) RNA 1: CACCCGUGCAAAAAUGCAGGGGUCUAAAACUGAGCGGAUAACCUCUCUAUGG RNA 2: GGGAAUGGAUCCACAUCUACGAAUUCGUACCAUAGAGAGGAUAUCCGCGCACCGAGAUCGGAAGAGCACACGU	14.2 nM
target 1 MT 5'PFS CUU 3'PFS CAG (mixed) RNA 1: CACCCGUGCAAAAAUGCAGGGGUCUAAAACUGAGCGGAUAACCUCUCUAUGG RNA 2: GGGAAUGGAUCCACAUCUACGAAUUCCUUCCAUAGAGAGGUUAUCCGCUCACAGAGAUCGGAAGAGCACACGU	74 nM
target 1 insG 3' of 14,insC 3' of 12 (mixed) RNA 1: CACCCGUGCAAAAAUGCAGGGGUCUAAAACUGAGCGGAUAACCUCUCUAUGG RNA 2: GGGAAUGGAUCCACAUCUACGAAUUCGUACCAUAGAGAGGGCUUAUCCGCUCACCGAGAUCGGAAGAGCACACGU	16.7 nM
target 1 MT 5'PFS ACC 3'PFS UCG (mixed) RNA 1: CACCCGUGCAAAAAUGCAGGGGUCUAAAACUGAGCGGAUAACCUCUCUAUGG RNA 2: GGGAAUGGAUCCACAUCUACGAAUUCACCCCAUAGAGAGGUUAUCCGCUCAUCGAGAUCGGAAGAGCACACGU	8.5 nM
target 3 U7C,U8G (mixed) RNA 1: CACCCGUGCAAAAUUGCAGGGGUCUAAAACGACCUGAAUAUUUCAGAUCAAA RNA 2: GGGAAUGGAUCCACAUCUACGAAUUCGUUUUUGAUCUGAAAUAGCCAGGUCUGCAGAUCGGAAGAGCACACGU	73.5 nM
target 1 MT 5'PFS GCC 3'PFS AGG (mixed) RNA 1: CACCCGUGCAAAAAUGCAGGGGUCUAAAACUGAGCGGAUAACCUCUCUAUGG RNA 2: GGGAAUGGAUCCACAUCUACGAAUUCGCCCCAUAGAGAGGUUAUCCGCUCAAGGAGAUCGGAAGAGCACACGU	37 nM
target 2 MT 5'PFS GAA 3'PFS UUU (mixed) RNA 1: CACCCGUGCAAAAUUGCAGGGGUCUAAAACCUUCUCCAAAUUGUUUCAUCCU RNA 2: GGGAAUGGAUCCACAUCUACGAAUUCGAAAGGAUGAAACAAUUUGGAGAAGUUUAGAUCGGAAGAGCACACGU	24 nM
